tested on: HT1197; experiment: cells; format: functional, cell-based, HT-1197; settings: Homo sapiens
Description: SANGER: Inhibition of human HT-1197 cell growth in a cell viability assay.
property.label: IC50

>>> measured("CC(=O)c1c(C)c2cnc(Nc3ccc(N4CCNCC4)cn3)nc2n(C2CCCC2)c1=O")
"> 4 µM"
>>> measured("C/C(O)=C(\\C#N)C(=O)Nc1cc(Br)ccc1Br")
"> 16 µM"
>>> measured("CC[C@@]1(O)C(=O)OCc2c1cc1n(c2=O)Cc2cc3ccccc3nc2-1")
"> 0.1 µM"
>>> measured("CCCS(=O)(=O)Nc1ccc(F)c(C(=O)c2c[nH]c3ncc(Cl)cc23)c1F")
"> 10 µM"
>>> measured("CC(O)(CS(=O)(=O)c1ccc(F)cc1)C(=O)Nc1ccc(C#N)c(C(F)(F)F)c1 (stereo not given) [BICALUTAMIDE]")
"> 1.02 µM"

Data origin: ChEMBL document CHEMBL1201861
